target: Delta-type opioid receptor (Rattus norvegicus); assay: Affinity was assessed using competitive binding assay labeled with [3H]DPDPE (6.3 nM) for Opioid receptor delta 1
Sequence (P33533 whole entry): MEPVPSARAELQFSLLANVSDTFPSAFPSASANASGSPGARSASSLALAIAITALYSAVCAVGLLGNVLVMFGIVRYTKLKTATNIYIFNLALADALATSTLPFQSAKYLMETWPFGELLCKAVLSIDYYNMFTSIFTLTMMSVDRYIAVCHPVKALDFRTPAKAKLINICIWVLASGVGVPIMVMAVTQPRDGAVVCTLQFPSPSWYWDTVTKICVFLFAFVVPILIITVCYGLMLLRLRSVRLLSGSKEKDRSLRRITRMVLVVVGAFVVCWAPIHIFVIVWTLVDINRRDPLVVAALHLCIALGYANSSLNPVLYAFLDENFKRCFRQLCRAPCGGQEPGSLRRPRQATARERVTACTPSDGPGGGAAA
Where a SMILES comes first, the peptide text is derived from it. [ ]: non-standard residue; d: D form. Aib = CC(C)(N)C(=O)O
Provide the reported pKi of each item.
Would you please state pKi, meaning minus log10 of the concentration in mol/L, as a bare number?

Quote pKi with test system Delta-type opioid receptor (Rattus norvegicus) for CC(C)[C@H](NC(=O)[C@H](CC(=O)O)NC(=O)C(C)(C)NC(=O)[C@@H](N)Cc1ccc(O)cc1)C(=O)N[C@H](C(=O)NCC(N)=O)C(C)C (H-Y[Aib]DVVG-NH2)
5.58

Quote pKi with test system Delta-type opioid receptor (Rattus norvegicus) for CC(C)[C@H](NC(=O)[C@@H](NC(=O)C(C)(C)NC(=O)[C@H](Cc1ccccc1)NC(=O)[C@@H](C)NC(=O)[C@@H](N)Cc1ccc(O)cc1)C(C)C)C(=O)NCC(N)=O
9.70

Quote pKi with test system Delta-type opioid receptor (Rattus norvegicus) for CC(C)[C@H](NC(=O)[C@H](CC(=O)O)NC(=O)C(C)(C)NC(=O)C(C)(C)NC(=O)[C@@H](N)Cc1ccc(O)cc1)C(=O)N[C@H](C(=O)NCC(N)=O)C(C)C
8.44

Quote pKi with test system Delta-type opioid receptor (Rattus norvegicus) for CC(C)[C@H](NC(=O)[C@H](CC(=O)O)NC(=O)[C@H](Cc1ccccc1)NC(=O)C(C)(C)NC(=O)[C@@H](N)Cc1ccc(O)cc1)C(=O)N[C@H](C(=O)NCC(N)=O)C(C)C (H-Y[Aib]FDVVG-NH2)
9.92

Quote pKi with test system Delta-type opioid receptor (Rattus norvegicus) for CC(C)[C@H](NC(=O)[C@@H](NC(=O)C(C)(C)NC(=O)[C@H](Cc1ccccc1)NC(=O)[C@@H](C)NC(=O)[C@@H](N)Cc1ccc(O)cc1)C(C)C)C(=O)NCC(=O)O
9.96

Quote pKi with test system Delta-type opioid receptor (Rattus norvegicus) for CC(C)[C@H](NC(=O)[C@H](CC(=O)O)NC(=O)[C@@H](C)NC(=O)[C@@H](C)NC(=O)[C@@H](N)Cc1ccc(O)cc1)C(=O)N[C@H](C(=O)NCC(N)=O)C(C)C
8.24

Quote pKi with test system Delta-type opioid receptor (Rattus norvegicus) for CC(C)[C@H](NC(=O)[C@H](CC(=O)O)NC(=O)C(C)(C)NC(=O)[C@@H](C)NC(=O)[C@@H](N)Cc1ccc(O)cc1)C(=O)N[C@H](C(=O)NCC(N)=O)C(C)C
9.10

---

Provide the reported pIC50 of each item.
target: Delta-type opioid receptor (Mus musculus); assay: Functional biological activity for Opioid receptor delta 1 was determined in vitro, on mouse vas deferens (MVD).
Sequence (P32300 whole entry): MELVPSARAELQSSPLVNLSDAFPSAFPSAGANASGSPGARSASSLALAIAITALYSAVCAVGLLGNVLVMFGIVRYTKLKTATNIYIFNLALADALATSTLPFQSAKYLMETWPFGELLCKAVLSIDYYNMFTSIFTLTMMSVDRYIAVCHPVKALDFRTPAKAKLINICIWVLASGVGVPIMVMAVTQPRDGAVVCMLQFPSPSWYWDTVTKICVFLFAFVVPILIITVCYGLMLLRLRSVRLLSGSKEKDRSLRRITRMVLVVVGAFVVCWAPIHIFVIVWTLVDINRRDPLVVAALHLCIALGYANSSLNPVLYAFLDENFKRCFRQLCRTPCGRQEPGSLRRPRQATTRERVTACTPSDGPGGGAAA
Where a SMILES comes first, the peptide text is derived from it. [ ]: non-standard residue; d: D form. Aib = CC(C)(N)C(=O)O
Would you please state pIC50, meaning minus log10 of the concentration in mol/L, as a bare number?

# return recorded pIC50 for input CC(C)[C@H](NC(=O)[C@H](CC(=O)O)NC(=O)C(C)(C)NC(=O)[C@@H](C)NC(=O)[C@@H](N)Cc1ccc(O)cc1)C(=O)N[C@H](C(=O)NCC(N)=O)C(C)C
7.24

# return recorded pIC50 for input CC(C)[C@H](NC(=O)[C@@H](NC(=O)C(C)(C)NC(=O)[C@H](Cc1ccccc1)NC(=O)[C@@H](C)NC(=O)[C@@H](N)Cc1ccc(O)cc1)C(C)C)C(=O)NCC(N)=O
9.44

# return recorded pIC50 for input CC(C)[C@H](NC(=O)[C@H](CC(=O)O)NC(=O)C(C)(C)NC(=O)C(C)(C)NC(=O)[C@@H](N)Cc1ccc(O)cc1)C(=O)N[C@H](C(=O)NCC(N)=O)C(C)C
7.15

# return recorded pIC50 for input CC(C)[C@H](NC(=O)[C@H](CC(=O)O)NC(=O)[C@H](Cc1ccccc1)NC(=O)C(C)(C)NC(=O)[C@@H](N)Cc1ccc(O)cc1)C(=O)N[C@H](C(=O)NCC(N)=O)C(C)C (H-Y[Aib]FDVVG-NH2)
8.84

---

target: Mu-type opioid receptor (Cavia porcellus, UniProt P97266); assay: Functional biological activity for mu opioid receptor was determined in vitro, on guinea pig ileum (GPI).
Sequence (P97266 whole entry): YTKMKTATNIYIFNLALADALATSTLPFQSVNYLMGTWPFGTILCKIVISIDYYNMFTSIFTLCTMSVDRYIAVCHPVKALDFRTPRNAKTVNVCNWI
Where a SMILES comes first, the peptide text is derived from it. [ ]: non-standard residue; d: D form. Aib = CC(C)(N)C(=O)O
Provide the reported IC50 of each item.

# return recorded IC50 for input CC(C)[C@H](NC(=O)[C@H](CC(=O)O)NC(=O)C(C)(C)NC(=O)[C@@H](C)NC(=O)[C@@H](N)Cc1ccc(O)cc1)C(=O)N[C@H](C(=O)NCC(N)=O)C(C)C
> 10 nM

# return recorded IC50 for input CC(C)[C@H](NC(=O)[C@H](CC(=O)O)NC(=O)C(C)(C)NC(=O)C(C)(C)NC(=O)[C@@H](N)Cc1ccc(O)cc1)C(=O)N[C@H](C(=O)NCC(N)=O)C(C)C
> 10 nM

# return recorded IC50 for input CC(C)[C@H](NC(=O)[C@H](CC(=O)O)NC(=O)[C@H](Cc1ccccc1)NC(=O)C(C)(C)NC(=O)[C@@H](N)Cc1ccc(O)cc1)C(=O)N[C@H](C(=O)NCC(N)=O)C(C)C (H-Y[Aib]FDVVG-NH2)
> 10 nM

# return recorded IC50 for input CC(C)[C@H](NC(=O)[C@@H](NC(=O)C(C)(C)NC(=O)[C@H](Cc1ccccc1)NC(=O)[C@@H](C)NC(=O)[C@@H](N)Cc1ccc(O)cc1)C(C)C)C(=O)NCC(N)=O
4.5 nM

# return recorded IC50 for input CC(NC(=O)[C@@H](N)Cc1ccc(O)cc1)C(=O)N[C@@H](Cc1ccccc1)C(=O)N[C@@H](CC(=O)O)C(=O)N[C@H](C(=O)N[C@H](C(=O)NCC(N)=O)C(C)C)C(C)C (single isomer, unassigned)
420 nM

---

Where a SMILES comes first, the peptide text is derived from it. [ ]: non-standard residue; d: D form. Aib = CC(C)(N)C(=O)O
Provide the reported log10 of Ki of each item.
In plain terms, each number is the log10 of measured Ki in µM.

Quote log10 of Ki with test system Mu-type opioid receptor (Rattus norvegicus) for CC(C)[C@H](NC(=O)[C@H](CC(=O)O)NC(=O)[C@@H](C)NC(=O)[C@@H](C)NC(=O)[C@@H](N)Cc1ccc(O)cc1)C(=O)N[C@H](C(=O)NCC(N)=O)C(C)C
1.13

Quote log10 of Ki with test system Mu-type opioid receptor (Rattus norvegicus) for CC(C)[C@H](NC(=O)[C@@H](NC(=O)C(C)(C)NC(=O)[C@H](Cc1ccccc1)NC(=O)[C@@H](C)NC(=O)[C@@H](N)Cc1ccc(O)cc1)C(C)C)C(=O)NCC(=O)O
-2.35

Quote log10 of Ki with test system Mu-type opioid receptor (Rattus norvegicus) for CC(C)[C@H](NC(=O)[C@H](CC(=O)O)NC(=O)C(C)(C)NC(=O)C(C)(C)NC(=O)[C@@H](N)Cc1ccc(O)cc1)C(=O)N[C@H](C(=O)NCC(N)=O)C(C)C
1.18

Quote log10 of Ki with test system Mu-type opioid receptor (Rattus norvegicus) for CC(C)[C@H](NC(=O)[C@@H](NC(=O)C(C)(C)NC(=O)[C@H](Cc1ccccc1)NC(=O)[C@@H](C)NC(=O)[C@@H](N)Cc1ccc(O)cc1)C(C)C)C(=O)NCC(N)=O
-3.37

Quote log10 of Ki with test system Mu-type opioid receptor (Rattus norvegicus) for CC(C)[C@H](NC(=O)[C@H](CC(=O)O)NC(=O)[C@H](Cc1ccccc1)NC(=O)C(C)(C)NC(=O)[C@@H](N)Cc1ccc(O)cc1)C(=O)N[C@H](C(=O)NCC(N)=O)C(C)C (H-Y[Aib]FDVVG-NH2)
0.01

Quote log10 of Ki with test system Mu-type opioid receptor (Rattus norvegicus) for CC(C)[C@H](NC(=O)[C@H](CC(=O)O)NC(=O)C(C)(C)NC(=O)[C@@H](N)Cc1ccc(O)cc1)C(=O)N[C@H](C(=O)NCC(N)=O)C(C)C (H-Y[Aib]DVVG-NH2)
2.64

Quote log10 of Ki with test system Mu-type opioid receptor (Rattus norvegicus) for CC(C)[C@H](NC(=O)[C@H](CC(=O)O)NC(=O)C(C)(C)NC(=O)[C@@H](C)NC(=O)[C@@H](N)Cc1ccc(O)cc1)C(=O)N[C@H](C(=O)NCC(N)=O)C(C)C
0.66
